system: biotinyl-Trp-oxazolone; assay: self-aminoacylation, catalytic enhancement (BWO) (fold over background); higher = more active; k-Seq, kA / k0A0; sequences stand for … in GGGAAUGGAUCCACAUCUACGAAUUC…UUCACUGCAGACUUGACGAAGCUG
Fewer inactive variants are shown than the library holds.
// rule not met strictly below 3 in self-aminoacylation; rule met otherwise

| item-sequence | measured-on | group-label |
| --- | --- | --- |
| AGUACCCUGGGCAUCGAGUGA [Fam2.1 aminoacylation ribozyme variant] | biotinyl-Trp-oxazolone | rule met |
| CUACUUCGAACAAUCGGGCUG [Fam1A.1 aminoacylation ribozyme variant] | biotinyl-Trp-oxazolone | rule not met |
| AUUACCCUGAUCAUCGAGGGA [Fam2.1 aminoacylation ribozyme variant] | biotinyl-Trp-oxazolone | rule not met |
| AAGUUUGCUAAUAGUCGCGAA [Fam3.1 aminoacylation ribozyme variant] | biotinyl-Trp-oxazolone | rule met |
| AAGCUUGCUAAUAGUCGCAAC [Fam3.1 aminoacylation ribozyme variant] | biotinyl-Trp-oxazolone | rule not met |
| AUACACCCAGGUCAUCGGGUG [Fam2.2 aminoacylation ribozyme variant] | biotinyl-Trp-oxazolone | rule met |
| CCACACUUCAAGUAAUGGGUC [Fam1B.1 aminoacylation ribozyme variant] | biotinyl-Trp-oxazolone | rule not met |
| AAGUUUACUAAUACUCGCAAG [Fam3.1 aminoacylation ribozyme variant] | biotinyl-Trp-oxazolone | rule not met |
| AAUACCCGGGUCAUCGAGUGA [Fam2.1 aminoacylation ribozyme variant] | biotinyl-Trp-oxazolone | rule met |
| AUUACCCUGGUAAUCGAGUGG [Fam2.1 aminoacylation ribozyme variant] | biotinyl-Trp-oxazolone | rule not met |
| AAGAUUGCUAAUAGUCGAAAG [Fam3.1 aminoacylation ribozyme variant] | biotinyl-Trp-oxazolone | rule not met |
| UUUCACCUAGGUAAUCGGGUG [Fam2.2 aminoacylation ribozyme variant] | biotinyl-Trp-oxazolone | rule met |
| AUUCACCUAGGACAUAGGGUG [Fam2.2 aminoacylation ribozyme variant] | biotinyl-Trp-oxazolone | rule met |
| CCACACUUCAAGGAAUCGGUC [Fam1B.1 aminoacylation ribozyme variant] | biotinyl-Trp-oxazolone | rule met |
| CUACUUCAAACUAUCGAUCUG [Fam1A.1 aminoacylation ribozyme variant] | biotinyl-Trp-oxazolone | rule not met |
| AUUCACCCAGGUUAUCGGGUG [Fam2.2 aminoacylation ribozyme variant] | biotinyl-Trp-oxazolone | rule met |
| CUACGUCAAACAAUCGGUCAG [Fam1A.1 aminoacylation ribozyme variant] | biotinyl-Trp-oxazolone | rule not met |
